Taken from patent US11897862B2.

TESTED_SYSTEM: IKZF2 (Homo sapiens, UniProt Q96SW2+Q9UKS7)
Sequence (Q9UKS7 1-500 isoform Q9UKS7-2): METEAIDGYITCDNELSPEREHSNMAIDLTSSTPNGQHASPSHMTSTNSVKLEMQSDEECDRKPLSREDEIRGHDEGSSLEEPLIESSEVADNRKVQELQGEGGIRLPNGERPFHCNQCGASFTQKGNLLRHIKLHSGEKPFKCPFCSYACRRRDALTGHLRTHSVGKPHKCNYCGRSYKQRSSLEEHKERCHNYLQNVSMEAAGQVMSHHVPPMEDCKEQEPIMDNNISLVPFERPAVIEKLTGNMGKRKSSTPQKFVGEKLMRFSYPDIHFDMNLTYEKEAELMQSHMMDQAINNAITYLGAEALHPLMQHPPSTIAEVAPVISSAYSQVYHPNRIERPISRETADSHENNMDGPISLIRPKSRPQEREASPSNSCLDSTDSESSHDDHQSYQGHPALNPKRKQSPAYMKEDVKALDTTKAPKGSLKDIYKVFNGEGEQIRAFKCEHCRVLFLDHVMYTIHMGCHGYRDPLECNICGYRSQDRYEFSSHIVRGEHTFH
Sequence (Q96SW2 whole entry): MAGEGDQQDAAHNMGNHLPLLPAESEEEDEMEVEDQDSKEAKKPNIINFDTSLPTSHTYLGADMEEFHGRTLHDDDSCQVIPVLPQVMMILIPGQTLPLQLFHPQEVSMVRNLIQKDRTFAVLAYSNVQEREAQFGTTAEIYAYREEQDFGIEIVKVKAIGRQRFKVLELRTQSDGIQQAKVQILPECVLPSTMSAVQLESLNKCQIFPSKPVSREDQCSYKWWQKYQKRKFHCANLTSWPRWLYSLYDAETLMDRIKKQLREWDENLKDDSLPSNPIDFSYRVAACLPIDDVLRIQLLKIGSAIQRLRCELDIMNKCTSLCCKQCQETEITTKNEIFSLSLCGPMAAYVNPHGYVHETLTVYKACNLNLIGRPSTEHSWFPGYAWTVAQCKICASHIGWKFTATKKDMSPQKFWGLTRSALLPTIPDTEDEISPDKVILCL
Sequence (Q16531 whole entry partner): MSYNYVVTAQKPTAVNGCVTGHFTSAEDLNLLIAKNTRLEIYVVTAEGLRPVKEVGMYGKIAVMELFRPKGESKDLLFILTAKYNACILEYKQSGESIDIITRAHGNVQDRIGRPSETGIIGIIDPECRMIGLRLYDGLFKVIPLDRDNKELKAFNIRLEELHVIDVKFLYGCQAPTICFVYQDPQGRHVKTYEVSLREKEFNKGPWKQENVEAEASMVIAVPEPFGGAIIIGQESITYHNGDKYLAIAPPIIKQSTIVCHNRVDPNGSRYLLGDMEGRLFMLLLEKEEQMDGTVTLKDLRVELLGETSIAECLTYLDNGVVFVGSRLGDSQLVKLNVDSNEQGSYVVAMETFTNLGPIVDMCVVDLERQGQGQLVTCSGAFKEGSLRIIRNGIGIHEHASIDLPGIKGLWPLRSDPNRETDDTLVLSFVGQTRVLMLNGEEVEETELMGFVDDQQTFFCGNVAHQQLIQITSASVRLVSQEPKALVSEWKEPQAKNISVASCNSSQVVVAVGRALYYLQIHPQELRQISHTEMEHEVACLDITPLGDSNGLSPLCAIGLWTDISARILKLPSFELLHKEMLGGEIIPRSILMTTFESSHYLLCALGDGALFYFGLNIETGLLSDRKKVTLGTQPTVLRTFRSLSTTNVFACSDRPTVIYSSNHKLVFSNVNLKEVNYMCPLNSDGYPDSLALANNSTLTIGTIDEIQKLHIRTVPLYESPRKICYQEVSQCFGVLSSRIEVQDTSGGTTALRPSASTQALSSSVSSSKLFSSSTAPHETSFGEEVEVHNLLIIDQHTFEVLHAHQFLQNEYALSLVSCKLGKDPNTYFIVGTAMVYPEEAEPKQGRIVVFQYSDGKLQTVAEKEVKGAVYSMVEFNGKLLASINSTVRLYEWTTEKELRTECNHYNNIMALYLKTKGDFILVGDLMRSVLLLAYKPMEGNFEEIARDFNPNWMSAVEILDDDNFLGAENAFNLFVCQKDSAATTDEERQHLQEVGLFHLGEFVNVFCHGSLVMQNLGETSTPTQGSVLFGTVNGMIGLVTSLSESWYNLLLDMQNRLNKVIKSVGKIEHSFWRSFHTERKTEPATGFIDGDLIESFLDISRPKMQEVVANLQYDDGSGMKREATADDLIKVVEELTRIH
ASSAY_COMMENT: HEK293 HiBiT in vitro degradation of IKZF2
Format: cell-based
Set-up: expressed in transfected cells
REPORTED_CONDITIONS: HEK293 HiBiT; maximum degradation at the highest concentration tested
OUTCOME_MEASURE: IKZF2 Dmax (%)

COMPOUND: CC1CC[C@H](NC2CCC(F)(F)CC2)[C@@H](Cc2ccc3c(c2)CN(C2CCC(=O)NC2=O)C3=O)C1 (single isomer, unassigned)
TESTED_SYSTEM: IKZF2 (Homo sapiens, UniProt Q96SW2+Q9UKS7)
UNITS_LABEL: %
IKZF2 Dmax: 95
//
COMPOUND: O=C1CCC(N2Cc3cc(C[C@H]4OCCC[C@@H]4NC4CCC(F)CC4)ccc3C2=O)C(=O)N1 (single isomer, unassigned)
TESTED_SYSTEM: IKZF2 (Homo sapiens, UniProt Q96SW2+Q9UKS7)
UNITS_LABEL: %
IKZF2 Dmax: 87
//
COMPOUND: CC1(C)OCCC1N[C@H]1CCCC[C@@H]1Cc1ccc2c(c1)CN(C1CCC(=O)NC1=O)C2=O (single isomer, unassigned)
TESTED_SYSTEM: IKZF2 (Homo sapiens, UniProt Q96SW2+Q9UKS7)
UNITS_LABEL: %
IKZF2 Dmax: 97
//
COMPOUND: COC1(C)CCC(N[C@H]2CCCO[C@@H]2Cc2ccc3c(c2F)CN(C2CCC(=O)NC2=O)C3=O)CC1 (single isomer, unassigned)
TESTED_SYSTEM: IKZF2 (Homo sapiens, UniProt Q96SW2+Q9UKS7)
UNITS_LABEL: %
IKZF2 Dmax: 94
//
COMPOUND: CC(N[C@H]1CCCC[C@@H]1Cc1ccc2c(c1)CN(C1CCC(=O)NC1=O)C2=O)C1(C#N)CC1 (single isomer, unassigned)
TESTED_SYSTEM: IKZF2 (Homo sapiens, UniProt Q96SW2+Q9UKS7)
UNITS_LABEL: %
IKZF2 Dmax: 87
//
COMPOUND: O=C1CCC(N2Cc3cc(C[C@H]4CCCC[C@@H]4NC4CCC(OC(F)(F)F)CC4)ccc3C2=O)C(=O)N1 (single isomer, unassigned)
TESTED_SYSTEM: IKZF2 (Homo sapiens, UniProt Q96SW2+Q9UKS7)
UNITS_LABEL: %
IKZF2 Dmax: 95

----------
TESTED_SYSTEM: IKZF2 (Homo sapiens, UniProt Q96SW2+Q9UKS7)
ASSAY_COMMENT: HEK293 HiBiT in vitro degradation of IKZF2
Type: cell-based
Design: expressed in transfected cells
REPORTED_CONDITIONS: HEK293, HEK293 HiBiT; maximum degradation at the highest concentration tested
OUTCOME_MEASURE: Dmax (%)

COMPOUND: CC(C)N[C@H]1CCC(F)(F)C[C@@H]1Cc1ccc2c(c1)CN(C1CCC(=O)NC1=O)C2=O (stereo partly shown) [Example 315]
UNITS_LABEL: %
Dmax: 88

COMPOUND: O=C1CCC(N2Cc3cc(C[C@H]4CCCC[C@@H]4NC4CCCCC4(F)F)ccc3C2=O)C(=O)N1 (stereo partly shown) [Example 111]
UNITS_LABEL: %
Dmax: 81

COMPOUND: C[C@@H](N[C@H]1CCCC[C@@H]1Cc1ccc2c(c1)CN(C1CCC(=O)NC1=O)C2=O)c1ccccc1 (stereo partly shown) [Example 61]
UNITS_LABEL: %
Dmax: 95

COMPOUND: CC(CC(F)(F)F)N[C@H]1CCCC[C@@H]1Cc1ccc2c(c1)CN(C1CCC(=O)NC1=O)C2=O (single isomer, unassigned) [Example 249]
UNITS_LABEL: %
Dmax: 97

COMPOUND: O=C1CCC(N2Cc3cc(C[C@H]4CCCC[C@@H]4NCc4ccc(F)cc4F)ccc3C2=O)C(=O)N1 (stereo partly shown) [Example 19]
UNITS_LABEL: %
Dmax: 89

[A] O=C1CC[C@H](N2Cc3c(ccc(C[C@H]4OCCC[C@@H]4NC4CCCCC4)c3F)C2=O)C(=O)N1 (single isomer, unassigned) [Example 338]
[B] O=C1CCC(N2Cc3cc(C[C@H]4CCCC[C@@H]4NCC4OCCO4)ccc3C2=O)C(=O)N1 (stereo partly shown) [Example 60]
Request: Response body: label of entry with the larger Dmax; valid values A , B . Answer by stating the label of the chosen item.
Result: A
